# targetEntity: Anti-CD28 Fab (SEQ ID NOs: 696, 697)
# Sequence (VH, as listed by the source, chain 1 of 2): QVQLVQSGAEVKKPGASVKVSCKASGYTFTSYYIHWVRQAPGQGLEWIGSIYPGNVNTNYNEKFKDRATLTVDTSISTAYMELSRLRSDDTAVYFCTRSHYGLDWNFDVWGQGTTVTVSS
# Sequence (VL, as listed by the source, chain 2 of 2): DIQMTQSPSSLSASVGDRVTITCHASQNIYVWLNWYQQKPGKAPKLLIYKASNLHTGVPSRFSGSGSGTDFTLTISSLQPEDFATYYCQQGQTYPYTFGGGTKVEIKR
# testMethodNotes: phage binding ELISA; captured anti-CD28 Fab pre-incubated with CD28 antigen as competitor, anti-M13 HRP detection
Where no end group is shown, it is not given here.
outcomeMeasure: Anti-CD28 Fab signal in the presence of CD28

# return recorded Anti-CD28 Fab signal in the presence of CD28 for entry YCDGHMGVYYWKCL (cysteine pairing not given here; also: displayed on phage by fusion to pIII, pIII and linker sequence not given here) [Phage-705]
0.09

# return recorded Anti-CD28 Fab signal in the presence of CD28 for entry YCDGHEAQYMSKCL (cysteine pairing not given here; also: displayed on phage by fusion to pIII, pIII and linker sequence not given here) [Phage-706]
0.09
